target_or_test_system: A*24:02 (human), P04439
test_settings: modification not given
measured_property: IC50
Answer with the number, then the unit.

Which IC50 reading was recorded for the binder SYSMCTGKF [SEQ ID NO: 308 serotype 2] ?
115 nM
